conditions: Liquid; Manometric method
// values below are reported Normal boiling temperature
READOUT TYPE: Normal boiling temperature (°C)

compound="O=CO [formic acid]" readout_type="Normal boiling temperature" measured_number=101.00
compound="COC(=O)/C=C\\C(=O)OC [dimethyl cis-butenedioate]" readout_type="Normal boiling temperature" measured_number=202.00
compound="CCC(=O)O [propanoic acid]" readout_type="Normal boiling temperature" measured_number=141.20
compound="CC(=O)O [acetic acid]" readout_type="Normal boiling temperature" measured_number=117.90

----------
Examples of molecules with documented refractive index follow.
assay: refractive index (Na D-line) (dimensionless); conditions: 293.15 K; 101.33 kPa; Liquid; Standard Abbe refractometry
READOUT TYPE: refractive index

molecule="O=CO [formic acid]" measured_number=1.3709
molecule="O [water]" measured_number=1.3334
molecule="COC(=O)/C=C\\C(=O)OC [dimethyl cis-butenedioate]" measured_number=1.4415
molecule="CCC(=O)O [propanoic acid]" measured_number=1.391
molecule="CC(=O)O [acetic acid]" measured_number=1.3719

All figures here come from the NIST ThermoML archive (doi:10.1016/j.fluid.2008.04.014).
